- assayed-target: Lck (Homo sapiens, UniProt P06239)
- Construct: Kinases are expressed as either kinase domains or full length constructs; made in house
- Sequence (P06239 whole entry, species assumed, the tested form may be a part): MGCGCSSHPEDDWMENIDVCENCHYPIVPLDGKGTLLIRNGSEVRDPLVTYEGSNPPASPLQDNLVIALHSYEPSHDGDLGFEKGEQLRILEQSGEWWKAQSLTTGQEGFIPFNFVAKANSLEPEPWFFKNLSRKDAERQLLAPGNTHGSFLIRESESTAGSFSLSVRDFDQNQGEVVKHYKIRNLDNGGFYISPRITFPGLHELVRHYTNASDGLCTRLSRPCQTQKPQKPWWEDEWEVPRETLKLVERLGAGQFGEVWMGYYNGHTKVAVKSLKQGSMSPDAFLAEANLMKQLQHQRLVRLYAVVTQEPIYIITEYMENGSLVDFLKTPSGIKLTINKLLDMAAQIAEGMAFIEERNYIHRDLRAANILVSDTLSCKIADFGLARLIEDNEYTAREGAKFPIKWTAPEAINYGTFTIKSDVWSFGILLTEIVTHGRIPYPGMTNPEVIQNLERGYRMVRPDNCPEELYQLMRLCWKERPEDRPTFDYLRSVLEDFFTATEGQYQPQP
- experiment-summary: Kinase inhibition assay (33P transfer), Lck
- Format: biochemical
- run-conditions: Table 3, class symbols; read-out: Lck-1
Task for the reader: assign each of the following compounds its reported IC50.

In: Query (compound): COc1ccc(Nc2ncnc(NCC(=O)c3ccccc3)n2)cc1OC [Compound 857] ; field requested: IC50
Out: > 12.3 µM

In: Also Cc1ccc(Cl)cc1Nc1ncnc(Nc2cc(Cl)ccc2C)n1 [Compound 638] ?
Out: > 12.5 µM

In: Also COc1cc(Nc2ncnc(Nc3ccc(OCCO)cc3)n2)cc(OC)c1OC [Compound 636] ?
Out: < 0.968 µM

In: Also CCOc1ccc(Nc2ncnc(Nc3cc(-c4ccc(C(=O)OC)cc4)n[nH]3)n2)cc1 [Compound 879] ?
Out: > 10.4 µM

In: Also CN(c1ccc2c(cnn2Cc2ccccc2)c1)c1ncnc(Nc2cccc(Cn3ccnn3)c2)n1 [Compound 677] ?
Out: 0.819 to 4.91 µM

In: Also COc1cc(Nc2ncnc(-c3cccnc3Nc3ccc(C(F)(F)F)cc3)n2)cc(OC)c1OC [Compound 835] ?
Out: > 9.03 µM

In: Also O=C(O)Cc1cccc(Nc2ncnc(Nc3ccc(Cl)cc3F)n2)c1 [Compound 968] ?
Out: > 12 µM

In: Also O=C(O)CCNC(=O)c1ccc(Nc2ncnc(Nc3cc(-c4ccco4)[nH]n3)n2)cc1 [Compound 885] ?
Out: > 10.4 µM

* * *

- assayed-target: Itk (Homo sapiens)
- Construct: Kinases are expressed as either kinase domains or full length constructs; made in house
- Sequence (Q08881 whole entry, species assumed, the tested form may be a part): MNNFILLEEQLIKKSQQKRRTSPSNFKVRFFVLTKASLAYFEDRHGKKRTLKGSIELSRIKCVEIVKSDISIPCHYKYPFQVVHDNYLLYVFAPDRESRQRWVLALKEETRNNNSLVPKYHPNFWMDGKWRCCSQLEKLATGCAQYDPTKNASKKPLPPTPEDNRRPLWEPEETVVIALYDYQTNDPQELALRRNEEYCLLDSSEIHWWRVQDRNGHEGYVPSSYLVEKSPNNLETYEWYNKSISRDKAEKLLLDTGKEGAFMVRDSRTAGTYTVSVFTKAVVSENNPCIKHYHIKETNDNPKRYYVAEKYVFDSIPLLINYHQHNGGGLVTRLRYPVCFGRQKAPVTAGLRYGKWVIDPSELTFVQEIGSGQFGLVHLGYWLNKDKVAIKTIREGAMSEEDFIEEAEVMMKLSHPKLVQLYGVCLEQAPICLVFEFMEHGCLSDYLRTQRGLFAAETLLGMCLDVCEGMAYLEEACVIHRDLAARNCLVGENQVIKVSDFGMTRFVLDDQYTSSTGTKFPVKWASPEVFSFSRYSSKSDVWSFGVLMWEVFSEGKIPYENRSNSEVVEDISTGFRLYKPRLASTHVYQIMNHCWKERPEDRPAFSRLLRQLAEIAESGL
- experiment-summary: Kinase inhibition assay (33P transfer), Itk
- Assay type: biochemical
- run-conditions: Table 3; read-out: Itk-1
endpoint-name: IC50

In: Query (compound): O=C(Nc1cccc(Nc2ncnc(-n3c(=O)[nH]c4ccccc43)n2)c1)O[C@@H]1CCOC1 ; field requested: IC50
Out: > 10.4 µM

In: Also COc1ccc(CNc2ncnc(Nc3cc(OC)c(OC)c(OC)c3)n2)cc1 ?
Out: > 11.3 µM

In: Also C=CCNc1cc(-c2ncnc(Nc3cc(OC)c(OC)c(OC)c3)n2)ccn1 ?
Out: > 11.4 µM

In: Also COc1cc(Nc2ncnc(Nc3ccc4[nH]ccc4c3)n2)cc(OC)c1OC ?
Out: 6.12 to 8.92 µM

In: Also COCCOc1ccc(Nc2ncnc(Nc3cc(-c4ccco4)n[nH]3)n2)cc1OCCOC ?
Out: 0.856 to 5.13 µM

In: Also COc1cc(Nc2ncnc(Nc3ccc(Cl)cc3F)n2)cc(OC)c1OC ?
Out: > 11.1 µM

In: Also COc1cc(Nc2ncnc(-n3cc(C)c4ccccc43)n2)cc(OC)c1OC ?
Out: > 11.5 µM

In: Also COc1cc(Nc2ncnc(-n3cnc4ccccc43)n2)cc(OC)c1OC ?
Out: > 11.9 µM

* * *

- assayed-target: IGFR-1 (Homo sapiens)
- Construct: Kinases are expressed as either kinase domains or full length constructs; made in house
- Sequence (P08069 31-1367): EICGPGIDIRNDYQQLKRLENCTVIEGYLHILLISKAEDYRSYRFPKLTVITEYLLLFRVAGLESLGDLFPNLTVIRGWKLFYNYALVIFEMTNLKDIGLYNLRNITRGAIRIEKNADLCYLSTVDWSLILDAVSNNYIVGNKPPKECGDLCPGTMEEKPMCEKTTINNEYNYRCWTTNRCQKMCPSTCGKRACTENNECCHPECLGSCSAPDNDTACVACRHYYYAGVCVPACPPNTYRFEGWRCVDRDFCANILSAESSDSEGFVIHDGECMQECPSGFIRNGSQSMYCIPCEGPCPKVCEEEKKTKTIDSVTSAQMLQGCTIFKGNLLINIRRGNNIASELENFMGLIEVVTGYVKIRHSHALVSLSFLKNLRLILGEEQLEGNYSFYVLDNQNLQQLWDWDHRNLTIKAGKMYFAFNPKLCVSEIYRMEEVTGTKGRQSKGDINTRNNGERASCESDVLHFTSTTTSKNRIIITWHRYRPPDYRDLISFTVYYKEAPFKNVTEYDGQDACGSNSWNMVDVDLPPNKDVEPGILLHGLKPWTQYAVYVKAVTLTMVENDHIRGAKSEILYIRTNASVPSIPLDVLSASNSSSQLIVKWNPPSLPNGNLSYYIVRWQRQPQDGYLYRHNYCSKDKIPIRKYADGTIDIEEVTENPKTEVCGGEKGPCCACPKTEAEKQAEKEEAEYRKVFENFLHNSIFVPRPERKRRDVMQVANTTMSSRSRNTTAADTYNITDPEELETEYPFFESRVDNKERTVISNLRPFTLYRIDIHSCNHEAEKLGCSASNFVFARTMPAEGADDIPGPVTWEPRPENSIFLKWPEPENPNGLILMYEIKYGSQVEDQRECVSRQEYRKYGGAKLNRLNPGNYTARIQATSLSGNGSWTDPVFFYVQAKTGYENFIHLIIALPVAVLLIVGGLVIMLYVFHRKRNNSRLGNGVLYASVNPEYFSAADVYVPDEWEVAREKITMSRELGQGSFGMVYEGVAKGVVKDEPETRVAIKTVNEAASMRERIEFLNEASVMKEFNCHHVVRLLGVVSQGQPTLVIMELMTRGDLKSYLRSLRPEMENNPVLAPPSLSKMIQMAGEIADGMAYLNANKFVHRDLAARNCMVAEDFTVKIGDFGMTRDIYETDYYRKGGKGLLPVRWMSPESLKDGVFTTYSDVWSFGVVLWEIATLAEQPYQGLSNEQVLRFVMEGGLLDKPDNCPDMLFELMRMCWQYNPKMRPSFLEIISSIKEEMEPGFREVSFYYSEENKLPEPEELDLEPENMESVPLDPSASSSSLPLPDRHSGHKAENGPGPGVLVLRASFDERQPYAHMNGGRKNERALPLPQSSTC
- experiment-summary: Kinase inhibition assay (33P transfer), IGFR-1
- Format: biochemical
- run-conditions: Table 2, class symbols A-E
pIC50: −log10 of the molar value.
endpoint-name: pIC50

In: Query (molecule): COc1ccc(Nc2ncnc(Nc3cc(Cl)cc(Cl)c3)n2)cc1OC [Compound 898] ; field requested: pIC50
Out: 5.05 to 5.21

In: Also Clc1cccc(Nc2ncnc(Nc3ccc4[nH]ncc4c3)n2)c1 [Compound 134] ?
Out: > 5.93

In: Also O=C(O)Cc1cccc(Nc2ncnc(-c3cccnc3NCc3ccccc3)n2)c1 [Compound 1099] ?
Out: < 4.96

In: Also COc1ccc(Nc2ncnc(N(C)c3ccc([N+](=O)[O-])cc3)n2)cc1OC [Compound 862] ?
Out: < 4.93

In: Also CN(c1cccc(Cl)c1)c1ncnc(Nc2cccc(Cn3ccnn3)c2)n1 [Compound 678] ?
Out: < 4.94

In: Also COc1ccc(Nc2ncnc(N(C)c3ccc(F)cc3F)n2)cc1OC [Compound 801] ?
Out: < 4.92

In: Also COC(=O)c1ccc(N(C)c2ncnc(Nc3ccc(OC)c(OC)c3)n2)cc1 [Compound 864] ?
Out: < 4.94

In: Also Clc1cc(Nc2ncnc(Nc3ccc4c(cnn4Cc4ccccc4)c3)n2)cc(Cl)c1Cl [Compound 872] ?
Out: 5.32 to 6.09

In: Also COC(=O)c1ccc(-c2cc(Nc3ncnc(NCCNC(C)=O)n3)[nH]n2)cc1 [Compound 819] ?
Out: < 4.94

In: Also COc1cc(Nc2ncnc(-c3cccnc3Nc3ccccc3)n2)cc(OC)c1OC [Compound 1092] ?
Out: < 4.98

In: Also COC(=O)c1ccc(-c2cc(Nc3ncnc(NCc4cccnc4)n3)[nH]n2)cc1 [Compound 809] ?
Out: 5.06 to 5.22

In: Also COc1ccc(Nc2ncnc(N(C)c3ccc4c(cnn4Cc4ccccc4)c3)n2)cc1OC [Compound 669] ?
Out: < 5.02

In: Also O=C(O)c1cccc(Nc2ncnc(-n3c(NCc4ccccc4)nc4ccccc43)n2)c1 [Compound 1069] ?
Out: < 4.99

In: Also COc1ccc(Nc2ncnc(Nc3ccc4c(c3)CCC4)n2)cc1OC [Compound 896] ?
Out: 5.18 to 5.96

In: Also COc1ccc(Nc2ncnc(N(C)c3ccccc3)n2)cc1OC [Compound 797] ?
Out: 4.98 to 5.15

In: Also CN(c1ccc(Cl)c(Cl)c1)c1ncnc(Nc2ccc3c(cnn3Cc3ccccc3)c2)n1 [Compound 903] ?
Out: < 5.02

In: Also COc1ccc(Nc2ncnc(N(C)c3ccc(OC(F)(F)F)cc3)n2)cc1OC [Compound 866] ?
Out: < 4.97

In: Also COC(=O)c1ccc(-c2cc(Nc3ncnc(Nc4cc(=O)n(-c5ccccc5)[nH]4)n3)[nH]n2)cc1 [Compound 880] ?
Out: < 5.02

In: Also CNC(=O)c1cccc(Nc2ncnc(Nc3cc(-c4ccco4)[nH]n3)n2)c1 [Compound 826] ?
Out: 5.20 to 5.97

In: Also CC(C)Nc1ncccc1-c1ncnc(Nc2cccc(Cn3ccnn3)c2)n1 [Compound 1098] ?
Out: < 4.94

In: Also CCOc1cccc(Nc2ncnc(Nc3cc(-c4ccc(C(=O)OC)cc4)n[nH]3)n2)c1 [Compound 812] ?
Out: 5.25 to 6.03

In: Also CC(C)Nc1ncccc1-c1ncnc(Nc2ccc(N3CCOCC3)cc2)n1 [Compound 1112] ?
Out: < 4.94

In: Also COc1ccc(CNc2ncnc(Nc3cc(-c4ccco4)[nH]n3)n2)cc1OC [Compound 822] ?
Out: 5.21 to 5.99

In: Also COc1cc(Nc2ncnc(-c3cccnc3Nc3ccc(Oc4ccccc4)cc3)n2)cc(OC)c1OC [Compound 839] ?
Out: < 5.06

In: Also COc1cc(Nc2ncnc(Nc3cc(-c4ccc(C(N)=O)cc4)n[nH]3)n2)cc(OC)c1OC [Compound 642] ?
Out: > 6.06

In: Also COc1ccc(Nc2ncnc(Nc3ccc4c(c3)C(=O)N(C)C4=O)n2)cc1OC [Compound 856] ?
Out: 5.06 to 5.23

In: Also CN(c1cccc(Cl)c1)c1ncnc(Nc2ccc(OC(F)(F)F)cc2)n1 [Compound 874] ?
Out: < 4.94

In: Also Cc1ccc2c(c1)CCCN2c1ncnc(Nc2cccc(Cc3nnn[nH]3)c2)n1 [Compound 635] ?
Out: < 4.95

In: Also COc1cc(C)c(Nc2ncnc(Nc3cc(-c4ccc(Cl)cc4)n[nH]3)n2)cc1OC [Compound 1128] ?
Out: > 6.04

In: Also c1ccc(CNc2ncccc2-c2ncnc(Nc3cccc(Cn4ccnn4)c3)n2)cc1 [Compound 1101] ?
Out: < 4.99

In: Also COC(=O)c1ccc(-c2cc(Nc3ncnc(NC4=NC(=O)CS4)n3)[nH]n2)cc1 [Compound 881] ?
Out: 5.23 to 6.01

In: Also COc1cc(Nc2ncnc(-c3cccnc3N[C@H](C)c3ccccc3)n2)cc(OC)c1OC [Compound 1110] ?
Out: < 5.01

In: Also CCOC(=O)c1cccc(Nc2ncnc(Nc3cc(-c4ccc(C(=O)OC)cc4)n[nH]3)n2)c1 [Compound 813] ?
Out: < 5.01

In: Also COC(=O)c1ccc(-c2cc(Nc3ncnc(Nc4cccc(S(=O)(=O)O)c4)n3)[nH]n2)cc1 [Compound 882] ?
Out: 5.29 to 6.07

* * *

- assayed-target: Kdr (Homo sapiens, UniProt P35968)
- Construct: Kinases are expressed as either kinase domains or full length constructs; made in house
- Sequence (P35968 20-1356, species assumed): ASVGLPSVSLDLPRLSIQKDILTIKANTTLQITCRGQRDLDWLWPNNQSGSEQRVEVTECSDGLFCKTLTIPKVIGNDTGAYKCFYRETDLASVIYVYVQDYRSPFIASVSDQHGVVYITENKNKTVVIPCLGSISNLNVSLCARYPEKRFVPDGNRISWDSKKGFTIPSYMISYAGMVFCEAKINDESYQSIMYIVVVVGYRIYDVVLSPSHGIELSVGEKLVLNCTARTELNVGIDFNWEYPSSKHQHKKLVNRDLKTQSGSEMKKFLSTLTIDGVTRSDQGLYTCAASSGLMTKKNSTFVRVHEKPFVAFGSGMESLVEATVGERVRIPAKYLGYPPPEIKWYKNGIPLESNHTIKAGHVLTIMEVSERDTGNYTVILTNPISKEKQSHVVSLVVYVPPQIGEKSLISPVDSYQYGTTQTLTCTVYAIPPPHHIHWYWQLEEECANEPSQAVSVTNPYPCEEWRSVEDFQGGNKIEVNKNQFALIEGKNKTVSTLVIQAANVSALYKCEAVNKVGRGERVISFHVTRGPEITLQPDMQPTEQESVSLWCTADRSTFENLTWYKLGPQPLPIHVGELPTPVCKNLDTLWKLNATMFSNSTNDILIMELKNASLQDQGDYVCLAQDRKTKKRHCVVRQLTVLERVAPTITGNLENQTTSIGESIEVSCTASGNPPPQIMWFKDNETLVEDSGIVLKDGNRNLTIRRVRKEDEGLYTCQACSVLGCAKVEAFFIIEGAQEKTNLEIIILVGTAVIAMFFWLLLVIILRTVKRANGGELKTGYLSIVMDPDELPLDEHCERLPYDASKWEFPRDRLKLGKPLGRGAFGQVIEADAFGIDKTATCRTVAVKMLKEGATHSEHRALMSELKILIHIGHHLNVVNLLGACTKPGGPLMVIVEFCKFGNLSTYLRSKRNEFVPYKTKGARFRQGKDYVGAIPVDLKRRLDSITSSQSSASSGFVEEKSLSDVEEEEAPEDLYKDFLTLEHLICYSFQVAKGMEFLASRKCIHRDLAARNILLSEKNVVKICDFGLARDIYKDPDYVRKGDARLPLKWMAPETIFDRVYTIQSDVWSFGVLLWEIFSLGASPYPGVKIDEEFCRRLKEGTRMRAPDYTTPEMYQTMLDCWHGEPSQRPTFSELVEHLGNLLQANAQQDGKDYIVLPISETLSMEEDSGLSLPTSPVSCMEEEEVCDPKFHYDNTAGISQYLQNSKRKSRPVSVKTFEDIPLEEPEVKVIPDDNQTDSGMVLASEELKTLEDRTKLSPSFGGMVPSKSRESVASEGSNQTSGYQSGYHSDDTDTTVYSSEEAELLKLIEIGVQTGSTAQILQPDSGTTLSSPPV
- experiment-summary: Kinase inhibition assay (33P transfer), Kdr
- Format: biochemical
- run-conditions: read-out: KDR-1
- From the text: The inhibitor compounds described herein are screened in the following manner. […] Kinases are expressed as either kinase domains or full length constructs fused to glutathione S-transferase (GST) or polyHistidine tagged fusion proteins in either E. colior Baculovirus-High Five expression systems. […]
Task for the reader: assign each of the following compounds its reported IC50.

In: // map O=c1[nH]c2ccccc2n1-c1ncnc(Nc2cccc(S(=O)(=O)CCO)c2)n1 to recorded IC50 (system: Kdr (Homo sapiens, UniProt P35968))
Out: 0.97 to 5.82 µM

In: Also COc1cc(Nc2ncnc(Nc3ccc(NC(=O)O[C@@H]4CCOC4)cc3)n2)cc(OC)c1OC ?
Out: 0.829 to 4.97 µM

In: Also COc1ccc(Nc2ncnc(NCCCN3CCN(C)CC3)n2)cc1OC ?
Out: > 11.6 µM

In: Also COc1cc(Nc2ncnc(Oc3ccc(OCc4ccccc4)cc3)n2)cc(OC)c1OC ?
Out: > 9.77 µM

In: Also NC(=O)Cc1cccc(Nc2ncnc(-n3c(N)nc4ccccc43)n2)c1 ?
Out: < 1.11 µM

In: Also COc1cc(Nc2ncnc(NC3CCc4ccccc43)n2)cc(OC)c1OC (centres unmarked) ?
Out: 8.9 to 11.4 µM

In: Also COc1cc(Nc2ncnc(-n3c(NCc4ccccn4)nc4ccccc43)n2)cc(OC)c1OCCn1ccnn1 ?
Out: < 0.707 µM

In: Also COc1cc(Nc2ncnc(Nc3ccc4c(cnn4Cc4ccccc4)c3)n2)cc(OC)c1OCCN1CCOCC1 ?
Out: 0.687 to 4.12 µM
